System: MCF7 breast
assay-remarks: NCI-60 one-dose screen, 48 h
particulars: 10 µM
About 83,000 compounds went through this panel and 20% of them were active in at least one assay; those are over-represented in the sample as a whole. Activity calls are given as the source filed them. How the source made its calls: active means growth percent below 10; inactive means the rest.
Outcomes: yes for active, no for inactive

| compound | assigned-class |
| --- | --- |
| Nc1n[nH]c2cccc(C#Cc3cccc(NC(=O)Nc4cc(C(F)(F)F)cc(C(F)(F)F)c4)c3)c12 | yes |
| CN(C(=O)c1ccc(C(F)(F)F)cc1C(F)(F)F)c1sc2c(c1C#N)CCC(=O)C2 | no |
| O=C1CCC(N2Cc3c(C#CCCCNC(=O)c4ccc(NC(=O)[C@@H]5NC6(CCCCC6)[C@@]6(C(=O)Nc7cc(Cl)ccc76)[C@H]5c5cccc(Cl)c5F)cc4)cccc3C2=O)C(=O)N1 (some centres not stated) | yes |
| CCCn1c(O)c(N=Nc2nc(-c3cc4ccccc4oc3=O)cs2)c2cc(Br)ccc21 | no |
| S=c1nc(-c2ccccc2)cc(-c2cc3ccccc3nc2Cl)[nH]1 | no |
| NS(=O)(=O)c1ccc(NC(=O)CSc2ccc(-c3ccc(Cl)cc3)nn2)c(Br)c1 | no |
| COC(=O)C(Cc1ccc(O)c(O)c1)NC(=O)C(CSC/C=C(\C)CCCC(C)CCCC(C)CCCC(C)C)NC(C)=O (configuration not stated) | no |
| COc1ccc(-c2ccc(SCC(=O)Nc3ccc(C#N)cc3)nn2)cc1 | no |
| C=C[C@@]12CN3CC[C@]1(O)[C@@](C(=O)OC)(CO2)c1[nH]c2ccccc2c1C3 | no |
| O=C(Nc1ccc(Cl)c([N+](=O)[O-])c1)Nc1ccc(Cl)c([N+](=O)[O-])c1 | yes |
| COC1=C[C@@]23CCC(=O)N2CCc2cc4c(cc2[C@H]3[C@H]1OC(=O)C(C)(C)O)OCO4 | no |
| O=C(Cn1cc(CSc2nnc3oc4ccccc4n23)nn1)Nc1ccc(Br)cc1 | no |
| COc1cc(/C=C/C(=O)c2ccc(NC(=O)CSc3nnc(-c4c[nH]c5ccccc45)n3-c3ccccc3)cc2)cc(OC)c1OC | no |
| CC1=C2C(=C[C@@](C)(CO)[C@@H]2O)/C(=N\N)[C@](C)(O)C12CC2 | yes |
| Nc1nc(-c2ccccc2)cs1 | no |
| CC1(C)CC[C@]23CC[C@]4(C)[C@H](CC[C@@H]5[C@@]6(C)CC[C@H](N)C(C)(C)[C@@H]6CC[C@]54C)[C@H]2[C@H]1OC3=O | yes |
| COc1cc(/C=C/C(=O)c2ccc(NC(=O)CN3C(=O)NC(C)(c4ccccc4)C3=O)cc2)cc(OC)c1OC (configuration not stated) | yes |

====

Test system: NCI-H23 lung
assay-remarks: NCI-60 one-dose screen, 48 h (100 = growth as untreated, 0 = no growth, -100 = all killed)
particulars: 10 µM
The panel holds about 83,000 compounds, 20% with a hit somewhere; the sample as a whole holds those more often.
Hi! Just check whether growth is below 50%. Below gives 1, equal or above gives 0.

| compound | study-target | assigned-class |
| --- | --- | --- |
| CN1C(=O)N(C)C2SC(N/N=C/c3ccc(F)cc3)=NC21 (stereo unspecified) | NCI-H23 lung | 0 |
| CN(C)c1ccc(/C=C/c2nc3ccccc3c(=O)n2CC(=O)Nc2ccccc2)cc1 | NCI-H23 lung | 0 |
| CC(C)C1=C[C@@]23CC[C@@H]4[C@](C)(CCC[C@]4(C)C(=O)NCc4ccccc4)[C@H]2C[C@@H]1[C@H]1C(=O)CCC(=O)[C@H]13 | NCI-H23 lung | 0 |
| CCCn1c(O)c(N=Nc2nc(-c3cc4ccccc4oc3=O)cs2)c2cc(Br)ccc21 | NCI-H23 lung | 0 |
| CN1CCN(c2ccc(Nc3nc(N4CCN(S(=O)(=O)c5ccc(Cl)cc5)CC4)c4sccc4n3)cc2)CC1 | NCI-H23 lung | 1 |
| Cc1ccc(-c2cc(-c3cc4ccccc4nc3Cl)[nH]c(=O)n2)cc1 | NCI-H23 lung | 1 |
| Clc1ccc2c(N/N=C/c3c[nH]c4ccc(Br)cc34)ccnc2c1 | NCI-H23 lung | 1 |
| O=S(=O)(Nc1ncccn1)c1ccc(-n2c(-c3ccccc3)nc(-c3ccccc3)c2-c2ccccc2)cc1 | NCI-H23 lung | 0 |
| COc1ccc2[nH]c(O)c(N=NC(=O)COc3ccc(NC(=O)Nc4ccc(Cl)c(Cl)c4)cc3)c2c1 | NCI-H23 lung | 1 |
| Nc1nnc(-c2c[nH]c3ccc(F)cc23)c(-c2c[nH]c3ncccc23)n1 | NCI-H23 lung | 0 |
| C=C(C)[C@@H]1CC[C@]2(C(=O)OC)CC[C@]3(C)[C@H](CC[C@@H]4[C@@]5(C)CC[C@H](N)C(C)(C)[C@@H]5CC[C@]43C)[C@@H]12 | NCI-H23 lung | 1 |
| CN1C(=O)/C(=C/c2ccc3ncsc3c2)NC1=NC12CC3CC(CC(O)(C3)C1)C2 | NCI-H23 lung | 1 |
| O=C(CSc1nnc(-c2c[nH]c3ccccc23)n1-c1ccccc1)Nc1ccc(C(=O)/C=C/c2cccc([N+](=O)[O-])c2)cc1 | NCI-H23 lung | 0 |
| O=C(c1ccc(Cl)cc1)C1[C@H](c2ccc(Br)cc2)[C@@H](c2ccccc2)NC12C(=O)Nc1ccc(Br)cc12 (stereo partly specified) | NCI-H23 lung | 1 |
| O=C1Nc2ccc(Cl)cc2/C1=C/c1cccc(OCc2ccccn2)c1 | NCI-H23 lung | 1 |
| Cc1ccc([N+](=O)[O-])c(C(=O)Nc2ccc(-c3ccc4c(c3)NC(=O)/C4=C\c3ccc[nH]3)cc2)c1 | NCI-H23 lung | 1 |
| COc1ccc(-c2cc(C(=O)N=Nc3c(O)[nH]c4ccccc34)c3ccccc3n2)cc1 | NCI-H23 lung | 1 |
| Cc1ccc(-c2nc3ccc(C(=O)N=Nc4c(O)[nH]c5ccc(Br)cc45)cc3[nH]2)cc1 | NCI-H23 lung | 1 |
| COc1ccc2[nH]c(O)c(N=NC(=O)COc3ccc(NC(=O)Nc4ccc(Cl)cc4)cc3)c2c1 | NCI-H23 lung | 1 |
| O=C(CSc1nnc(-c2c[nH]c3ccccc23)n1-c1ccccc1)c1ccc(Br)cc1 | NCI-H23 lung | 0 |
| COC[C@@H](CC(C)C)N=C1N/C(=C\c2ccc3ncsc3c2)C(=O)N1C | NCI-H23 lung | 1 |
| CNC(=O)c1cc(-c2ccc(NC(=O)Nc3ccc(C)cc3)cc2)nc2cccnc12 | NCI-H23 lung | 0 |
| CN1C/C(=C\c2ccc(O)cc2O)c2[o+]c3cc(O)ccc3cc2C1 | NCI-H23 lung | 0 |
| CCOc1ccc(/C=N/NC(=O)Cn2nc(Cc3ccccc3)c3onc(C)c3c2=O)cc1 | NCI-H23 lung | 1 |
| Cc1ccc2nc(COc3ccc(C(=O)NNC(=S)NCCc4ccccc4)cc3)[nH]c2c1 | NCI-H23 lung | 1 |
| Cc1ccc(NC(=O)NCn2c(=O)[nH]c3ccccc3c2=O)cc1 | NCI-H23 lung | 0 |
| Cc1cc(C)nc(NS(=O)(=O)c2ccc(N/C(N)=N/c3nccc(-c4ccccc4)n3)cc2)n1 | NCI-H23 lung | 0 |
| CC(=O)Nc1nc(-c2ccc(N3CCN(C)CC3)c(NS(=O)(=O)c3cccc4c(N(C)C)cccc34)c2)cs1 | NCI-H23 lung | 0 |
| CC(=O)Nc1nc(-c2ccc(N3CCN(C)CC3)c(NS(=O)(=O)c3ccc(C(F)(F)F)cc3)c2)cs1 | NCI-H23 lung | 0 |
| Cc1ccc(NCC(=O)Nn2c(COc3ccccc3)nc3ccccc3c2=O)cc1 | NCI-H23 lung | 0 |
| COC[C@@H](CC(C)C)N=C1NC(=O)/C(=C/c2ccc3ncsc3c2)N1 | NCI-H23 lung | 1 |
| O=C(CSc1nnc(-c2c[nH]c3ccccc23)n1-c1ccccc1)Nc1ccc(C(=O)/C=C/c2ccc(Cl)cc2)cc1 | NCI-H23 lung | 0 |
| COc1ccc2[nH]cc(/C=N/Nc3ccc(Br)cn3)c2c1 | NCI-H23 lung | 1 |
| CCCn1c(=O)c2[nH]c(-c3ccc(OCc4nc5ccc(C(F)(F)F)cc5[nH]4)cc3)nc2n(CCC)c1=O | NCI-H23 lung | 1 |

====

System: SF-295 CNS
assay-remarks: NCI-60 one-dose screen, 48 h (100 = growth as untreated, 0 = no growth, -100 = all killed)
particulars: 10 µM
Experimental: Cells are grown in 96 well plates and exposed to the test compound for 48 hours. Compounds are tested at a single concentration, which is 10^-5 M for most compounds. The reported endpoint is percent growth (GI% or GIPRCNT), where numbers from 0 - 100% represent growth inhibition, and numbers from -100% - 0 represent cell death. For example, a value of 40 represents 60% growth inhibition. A value of 0 means no net growth occurred over the course of the experiment. […]
About 83,000 compounds went through this panel and 20% of them were active in at least one assay; those are over-represented in the sample as a whole.
# thresholds on growth define classes: one = under -40%, two = from -40% up to 10%, three = 10% and over

| structure-notation | assigned-class |
| --- | --- |
| O=C(CNc1nc(-c2ccccc2)cs1)Nc1ccc(Br)cc1 | one |
| O=C(COc1ccc(NC(=O)Nc2ccc(Cl)cc2)cc1)N=Nc1c(O)[nH]c2ccc([N+](=O)[O-])cc12 | three |
| CC1=C2C(=C[C@@](C)(CO)[C@@H]2O)/C(=N\N)[C@](C)(O)C12CC2 | two |
| COc1ccc2nc(Cl)c(-c3cc(-c4ccccc4)nc(N)n3)cc2c1 | three |
| Cc1cc(C(F)(F)F)ccc1C(=O)Nc1sc2c(c1C#N)CCC(=O)C2 | two |
| O=C1N/C(=N\c2nccs2)S/C1=C\c1cccs1 | three |
| Cc1ccc2nc(COc3ccc(C(=O)NNC(=S)NCCc4ccccc4)cc3)[nH]c2c1 | three |
| COc1cc(/C=N/NC(=O)c2ccc3nc(-c4ccc(Cl)cc4)[nH]c3c2)cc(OC)c1OC | one |
| O=c1[nH]c2ccccc2cc1CSc1ccc(Nc2nccc(-c3ccc(Cl)cc3)n2)cc1 | one |
